- System: Hep3B cells
- assayText: Clonogenicity (colony formation) in Hep3B liver cancer cells
- Assay type: cell-based
- conditionSummary: Homo sapiens, 168 h, 7 days treatment
pIC50: −log10 of the molar value.
readoutKind: pIC50

| smilesRepr | reportedMeasurement |
| --- | --- |
| CC(C)(CCCCc1ccc(CCCCC(C)(C)C(=O)O)cc1)C(=O)O | 4.27 |
| CC(C)(CCCc1ccccc1CCCC(C)(C)C(=O)O)C(=O)O | 4.24 |
| CC(C)(CCCCc1cccc(CCCCC(C)(C)C(=O)O)c1)C(=O)O | 4.38 |
| CC(C)(CCCc1ccc(CCCC(C)(C)C(=O)O)cc1)C(=O)O | 4.25 |
